Catalogue of compounds with associated Ratio Ki(app)
species on record: Homo sapiens; test: Selectivity ratio of Ki(app) for JAK2 (unknown origin) to Ki(app) for human EGFR catalytic domain (668 to 1210 residues) T790M/L858R double mutant

Solved cases below.
>  <structureNotation>
CN1CCN(c2ccc(NC(=O)c3c(Nc4ccnc(N)n4)cc[nH]c3=O)cc2)CC1

>  <Ratio Ki(app)>
2

$$$$
>  <structureNotation>
COc1ccccc1Nc1cc[nH]c(=O)c1-c1nc2c(C(C)C)ccc(C)c2[nH]1

>  <Ratio Ki(app)>
0.3

$$$$
>  <structureNotation>
COc1ccccc1Nc1cc[nH]c(=O)c1-c1nc2c(C(C)C)cccc2[nH]1

>  <Ratio Ki(app)>
0.2

$$$$

Task: Can you share its Ratio Ki(app)? I mean this compound: CCc1cc(NC(=O)c2c(Nc3ccccc3OC)cc[nH]c2=O)ccc1N1CCN(C)CC1
Result: 4

Task: For the compound shown here, COc1ccccc1Nc1cc[nH]c(=O)c1C(=O)Nc1ccc(N2CCN(C)CC2)c(C)c1 , give the reported Ratio Ki(app).
Result: 0.9

Task: // returns reported Ratio Ki(app) for input COc1ccccc1Nc1cc[nH]c(=O)c1C(=O)Nc1ccc(N2CCN(C)CC2)cc1
Result: 0.5
